# assay.text: in vivo
# run.parameters: fasting Sprague Dawley rat, oral route
# reported LD50; entries follow

INSERT INTO assay_data (compound, measured_quantity, experimental_result) VALUES
  ('Cc1cc2cccnc2n(-c2cccc(C(F)(F)F)c2)c1=O [Examples 3 & 10]', 'LD50', '> 256 mg/kg');

q: Using known records, supply LD50 for O=c1ccc2cccnc2n1-c1cccc(C(F)(F)F)c1 [Example 4]
a: > 256 mg/kg
